- methodDescription: chemical genetic growth profiling, strain panel (AID 1159580);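 further: tested at 20 µM; growth read once vehicle control cultures reached saturation at 30 °C; 1 = growth at the plate median or of vehicle wells; lower values mean less growth of the strain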
- settings: S. cerevisiae deletion strains, growth OD, locus YPL240C, strain hsp82, active compounds read low
Counter-ions that a name gives are not always drawn. Among all 5,500 compounds or so, about 2,000 (36%) were called active. Another 18% or so got no clear call; they are omitted. Some of the results follow. Where a SMILES comes first, the peptide text is derived from it. The star is where a group is joined. Tfa = O=C(C(F)(F)F)*
molecules and their reported normalized growth
Lab note: write the figure by itself, no unit.

Return reported normalized growth; argument: O=C(Cn1ccnc1[N+](=O)[O-])NCCO
1.01

Requested read-out: normalized growth. Entry: Nc1ccc(N=Nc2ccccc2)c(N)n1
0.849

Report normalized growth for CN1C(C(=O)Nc2ccccn2)=C(O)c2ccccc2S1(=O)=O please.
0.953

Look up normalized growth: C=C1CCC(C2CC(=O)OC2=O)C(=O)CCC2C1CC2(C)C (stereo unspecified)
1

Requested field: normalized growth. Item: CC1=CC2C(CC1=O)C(C)=CCC2C(C)C (stereo unspecified)
1.02

Value lookup for normalized growth; key = COC(=O)C(C)c1ccc(C(=O)c2cccs2)cc1 (stereo unspecified)
1.02

// lookup normalized growth for NC(=O)c1cccc(N)c1
0.984

Name the recorded normalized growth for O=S1OCC2C(CO1)C1(Cl)C(Cl)=C(Cl)C2(Cl)C1(Cl)Cl (stereo unspecified) .
0.991

Fill in the blank: the reported normalized growth of CC[C@H](C)C(=O)O[C@H]1C[C@@H](C)C=C2C=C[C@H](C)[C@H](CC[C@@H]3C[C@@H](O)CC(=O)O3)[C@H]21 is ____.
1.01

Bench note: what normalized growth did CC(C)C(NC(=O)C(Cc1ccc(O)cc1)NC(=O)C(NC(=O)C(F)(F)F)C(C)C)C(=O)O (stereo not drawn) (Tfa-Val-Tyr-Val-OH; configuration not given here) show?
0.981

Tell me the measured normalized growth of Cc1cc(NC(=O)C2=C(O)c3ccccc3S(=O)(=O)N2C)no1 , please.
0.973

Given the entry CC1(C)O[C@H]2[C@H](O)C[C@](O)(C(N)=O)C[C@H]2O1 , report its measured normalized growth.
1.01

Query: normalized growth; subject: C=CCSCC1Nc2cc(Cl)c(S(N)(=O)=O)cc2S(=O)(=O)N1 (stereo unspecified)
1.01

Source listed as PubChem BioAssay AID1159580.
